Measured EC50(pM), cell agonistic activity (cAMP, HTRF) accompanies every entry in the list below.
Target desc: T1, human GIP receptor (glucose-dependent insulinotropic peptide receptor, GIPR) (human, UniProt P48546 22-466)
T1 sequence (looked up): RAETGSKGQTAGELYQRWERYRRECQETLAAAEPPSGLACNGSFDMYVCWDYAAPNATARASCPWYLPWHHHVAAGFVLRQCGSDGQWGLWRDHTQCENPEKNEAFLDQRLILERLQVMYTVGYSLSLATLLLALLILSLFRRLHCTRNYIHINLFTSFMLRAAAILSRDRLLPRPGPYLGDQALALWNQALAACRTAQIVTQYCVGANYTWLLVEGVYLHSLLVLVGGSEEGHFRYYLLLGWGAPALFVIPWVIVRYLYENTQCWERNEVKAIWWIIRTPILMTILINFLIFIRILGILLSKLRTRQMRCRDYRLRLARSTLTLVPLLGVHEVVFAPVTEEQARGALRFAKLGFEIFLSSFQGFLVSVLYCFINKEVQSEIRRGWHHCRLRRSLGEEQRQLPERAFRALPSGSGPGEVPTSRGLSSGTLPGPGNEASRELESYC
Assay protocol: cell-based or functional assay
Non-standard residues stand in square brackets, D forms with d. No end group written: not given here. Aib = CC(C)(N)C(=O)O
Numbers only; they are read as pM.

Below, each entry is followed by its recorded EC50(pM), cell agonistic activity (cAMP, HTRF) result.
• Y[Aib]EGTFISDYSIALDK(18‑(((23R)-23-carboxyl-2,11,20-trioxo-10,19-diaza-4,7,13,16-tetraoxatricosyl-23-yl)amino)‑18‑oxooctadecanoic acid acetyl)LHQEDFVNWLLAQRG = 6.82
• Y[Aib]EGTFISDYSIALDEIHQKDFVNWLLAQRG (also: long-acting conjugating component, site and structure not given here) [Peptide 5 (long-acting conjugate of GIP analog, Seq ID. 5)] = 27
• Y[Aib]EGTFISDYSIALDK(18‑(((23R)-23-carboxyl-2,11,20-trioxo-10,19-diaza-4,7,13,16-tetraoxatricosyl-23-yl)amino)‑18‑oxooctadecanoic acid acetyl)LHQQDFVNWLLAQRG = 4.26

Next, consider the following binder.
Query string: I'd like to know its EC50(pM), cell agonistic activity (cAMP, HTRF). The binder in question is Y[Aib]EGTFISDYSIALDRIHQQDFVNWLLAQK(18‑(((23R)-23-carboxyl-2,11,20-trioxo-10,19-diaza-4,7,13,16-tetraoxatricosyl-23-yl)amino)‑18‑oxooctadecanoic acid acetyl)G
Result string: 3.5
